B1: library; a variant is named by its letters at N, in order (parent)
chain: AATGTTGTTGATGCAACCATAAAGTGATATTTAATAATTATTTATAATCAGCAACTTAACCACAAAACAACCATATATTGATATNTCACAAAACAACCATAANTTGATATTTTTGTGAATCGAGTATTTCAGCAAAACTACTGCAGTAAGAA

- Variants of: B1
- METHOD_SUMMARY: relative integration efficiency (T-RL orientation) vs wild-type transposon end (log2 (normalized fold change)); transposon end mutated: left end; higher = more efficient transposition
- MEASUREMENT_CONDITIONS: with VchCAST RNA-guided transposition machinery (E. coli BL21(DE3) host, lacZ target)
Entry flag: True if relative integration efficiency (log2) reaches -0.3; False if it does not.

INSERT INTO assay_data (mutant_id, cat) VALUES
  ('TA A22T G24T T31C A33C T76A T78A T84A C87A T104A T110A T113A', 'True'),
  ('CG A70C', 'True');

Answer whether relative integration efficiency (log2) of TG A22T G24T T31C A33C T76A T78A T84A C87A is greater than or equal to -0.3. False

Entry TA A16C G24T T30A T76A A77G C87T A102T T111C T113C : is its relative integration efficiency (log2) no less than -0.3? False

Check the entry CG C17A C71A C97A : does relative integration efficiency (log2) equal or exceed -0.3? False

Tell me whether relative integration efficiency (log2) is at least -0.3 here: CG T78A T79A G80C A81T False

Please indicate if the recorded relative integration efficiency (log2) for CG C68A A69C A70C C71A meets or exceeds -0.3. False

Threshold query (relative integration efficiency (log2) >= -0.3) on CG T12A G13A T30A T31C T32A A77C False

Reported relative integration efficiency (log2) reaches at least -0.3 for CG A15C A69C A95C ? False

Is relative integration efficiency (log2) at least -0.3? Consider TG G24A T30A T76A T78A T84A C87A True
